These measurements were taken from patent US9963464B2.

assay: Caco-2 permeation assay; type: in vitro ADME; details: human, pH 7.2; Caco-2 monolayer, 2 μM test compound, 2 h; read-out: Papp A-B (Mari)
Papp A→B at 2 h, 2 μM values by entry
readout_name: Papp A→B at 2 h, 2 μM (×10⁻⁶ cm/s)

>>> df
                                   compound           readout_name  unit_string  number
0  CS(=O)(Cc1cc2nc(c1)OCCCOc1cc(F)ccc1-c1cc(ncc1F)N2)=NC(=O)OCCN (racemic)  Papp A→B at 2 h, 2 μM   ×10⁻⁶ cm/s     0.4
1  NCCS(=O)(=O)Cc1cc2nc(c1)OCCCOc1cc(F)ccc1-c1cc(ncc1F)N2  Papp A→B at 2 h, 2 μM   ×10⁻⁶ cm/s     1.2
2  CS(=O)(=O)Cc1cc2nc(c1)OCCCOc1cc(F)ccc1-c1cc(ncc1F)N2  Papp A→B at 2 h, 2 μM   ×10⁻⁶ cm/s     6.7
3  CS(=O)(=O)N=S(C)(=O)Cc1cc2nc(c1)OCCCOc1cc(F)ccc1-c1cc(ncc1F)N2 (racemic)  Papp A→B at 2 h, 2 μM   ×10⁻⁶ cm/s     8.2
4  CS(=O)(Cc1cc2nc(c1)OCCCOc1cc(F)ccc1-c1cc(ncc1F)N2)=NS(=O)(=O)CCN (racemic)  Papp A→B at 2 h, 2 μM   ×10⁻⁶ cm/s     0.6
5  CS(=N)(=O)Cc1cc2cc(c1)OCCCCOc1cc(F)ccc1-c1nc(ncc1F)N2 (racemic)  Papp A→B at 2 h, 2 μM   ×10⁻⁶ cm/s    13.9
6  CS(=N)(=O)Cc1cc2nc(c1)OCCCOc1cc(F)ccc1-c1cc(ncc1F)N2 (racemic)  Papp A→B at 2 h, 2 μM   ×10⁻⁶ cm/s     4.7
7  CCNC(=O)N=S(C)(=O)Cc1cc2nc(c1)OCCCOc1cc(F)ccc1-c1cc(ncc1F)N2 (racemic)  Papp A→B at 2 h, 2 μM   ×10⁻⁶ cm/s     8.7
